- experimental_target: GRK6, recombinant full-length GST-tagged human protein (Homo sapiens)
- Construct: Enzyme: 20 nM GRK6, recombinant full-length GST-tagged human protein; GST
- protocol_description: GRK6 assay, IC50 determination (8-point concentration-response)
- Assay type: biochemical
- condition_notes: Series 1 (Table 11); 20 nM GRK6, ATP 12 μM (Km), Peptide 216 1 μM, incubation 7 h
Listing: pIC50 of selected compounds
pIC50 (log units): -log10 of the concentration in mol/L.

chem_smiles | value_kind | observed_measurement
O=C(O)CSc1nnc(-c2ccc(-c3ccccc3[N+](=O)[O-])o2)[nH]1 | pIC50 | 5.50
O=C(O)CSc1nnc(-c2ccc(-c3ccc4cc[nH]c4c3)o2)[nH]1 | pIC50 | 6.38
COc1ccc2cc(-c3ccc(-c4nnc(SCC(=O)O)[nH]4)o3)ccc2c1 | pIC50 | 6.62
CCOc1ccc2ccc(-c3ccc(-c4nnc(SCC(=O)O)[nH]4)o3)cc2c1 | pIC50 | 6.44
O=C(O)CSc1nnc(-c2ccc(-c3cc(Cl)cc(OCc4ccccc4)c3)o2)[nH]1 | pIC50 | 6.59
COc1ccc(-c2ccc(-c3nnc(SCC(=O)O)[nH]3)o2)cn1 | pIC50 | 5.74

Query :: State the recorded pIC50 for this entry: Cc1nn(C)cc1-c1ccc(-c2nnc(SCC(=O)O)[nH]2)o1
Result :: 5.48

Query :: Now the compound COc1ccc(-c2ccc(-c3nnc(SCC(=O)O)[nH]3)o2)cc1
Result :: 5.92

Query :: // next record Cn1ccc2ccc(-c3ccc(-c4nnc(SCC(=O)O)[nH]4)o3)cc21
Result :: 6.67

Query :: Please answer likewise for O=C(O)CSc1nnc(-c2ccc(-c3cc(Cl)cc(Cl)c3)o2)[nH]1
Result :: 6.73

Query :: Next up: Cn1ccc2c(-c3ccc(-c4nnc(SCC(=O)O)[nH]4)o3)cccc21
Result :: 5.74

Query :: Let us now turn to N#Cc1ccc2[nH]c(-c3ccc(-c4nnc(SCC(=O)O)[nH]4)o3)cc2c1
Result :: 6.60

Query :: Another compound to look at: O=C(O)CSc1nnc(-c2ccc(-c3cccc(OC(F)(F)F)c3)o2)[nH]1
Result :: 6.58

Query :: Another compound to check: O=C(O)CSc1nnc(-c2ccc(-c3ccc4cc(-c5ccccc5)[nH]c4c3)o2)[nH]1
Result :: 6.57

Query :: Note, next up: COc1ccc(-c2ccc(-c3nnc(SCC(=O)O)[nH]3)o2)cc1C=O
Result :: 6.61

Query :: Then O=C(O)CSc1nnc(-c2ccc(-c3cccc(C(F)(F)F)c3)o2)[nH]1 ?
Result :: 6.23

Query :: Same question for O=C(O)CSc1nnc(-c2ccc(-c3ccc4ncccc4c3)o2)[nH]1 please.
Result :: 6.50

====

- experimental_target: GRK6, recombinant full-length GST-tagged human protein (Homo sapiens)
- Construct: Enzyme: 20 nM GRK6, recombinant full-length GST-tagged human protein; GST
- protocol_description: GRK6 assay, IC50 determination (8-point concentration-response)
- Assay type: biochemical
- condition_notes: Series 4 (Table 14); conditions as Example 18
IC50 listing for selected molecules.
// return numeric value only (unit: µM, not printed)

Consider the reported IC50 for these molecules:
chem_smiles | unit_abbrev | IC50
O=C(O)CSc1nnc(-c2ccc(Oc3ccccc3)nc2)[nH]1 | µM | 9.21
O=C(O)CSc1nnc(-c2ccc(-c3ccc4ccccc4c3)s2)[nH]1 | µM | 2.98
Cc1csc2sc(-c3nnc(SCC(=O)O)[nH]3)c(C)c12 | µM | 27.3
Cn1nc(C(F)(F)F)cc1-c1ccc(-c2nnc(SCC(=O)O)[nH]2)s1 | µM | 7.41
CCc1n[nH]cc1-c1nnc(SCC(=O)O)[nH]1 | µM | 8.96
O=C(O)CSc1nnc(-c2ccc(N3CCOCC3)nc2)[nH]1 | µM | 11.3
O=C(O)CSc1nnc(-c2cnn(-c3cccc(Cl)c3)c2)[nH]1 | µM | 2.01
Nc1ncc(-c2nnc(SCC(=O)O)[nH]2)s1 | µM | 4.64

Query :: Enter reported IC50 observed with GRK6, recombinant full-length GST-tagged human protein (Homo sapiens) for Nc1ncc(-c2nnc(SCC(=O)O)[nH]2)cn1
Result :: 9.61

Query :: Same read-out for O=C(O)CSc1nnc(-c2ccc(-c3ccccn3)s2)[nH]1 ?
Result :: 6.54

Query :: And for COc1ccc(-c2nnc(SCC(=O)O)[nH]2)cn1 ?
Result :: 13

Query :: Request: O=C(O)CSc1nnc(-c2cncc(Br)c2)[nH]1
Result :: 4.11

Query :: Now the molecule O=C(O)CSc1nnc(-c2ccc(-c3cc(Cl)cc(Cl)c3)s2)[nH]1
Result :: 0.595

====

// reported pIC50 per item
- experimental_target: GRK6, recombinant full-length GST-tagged human protein (Homo sapiens)
- Construct: Enzyme: 20 nM GRK6, recombinant full-length GST-tagged human protein; GST
- protocol_description: GRK6 assay, IC50 determination (8-point concentration-response)
- Format: biochemical
- condition_notes: Series 4 (Table 14); conditions as Example 18
Bear in mind: pIC50 is minus log10 of a mol/L concentration; give just that figure.

chem_smiles | pIC50
Cn1ncc(-c2nnc(SCC(=O)O)[nH]2)c1-c1ccccc1 | 5.24

Query :: Need pIC50 of Cc1ncc(-c2nnc(SCC(=O)O)[nH]2)cn1 , thanks.
Result :: 4.56

====

The following molecules are shown together with reported pIC50 values.
- experimental_target: GRK6, recombinant full-length GST-tagged human protein (Homo sapiens, UniProt P43250)
- Construct: Enzyme: 20 nM GRK6, recombinant full-length GST-tagged human protein; GST
- Sequence (P43250 whole entry): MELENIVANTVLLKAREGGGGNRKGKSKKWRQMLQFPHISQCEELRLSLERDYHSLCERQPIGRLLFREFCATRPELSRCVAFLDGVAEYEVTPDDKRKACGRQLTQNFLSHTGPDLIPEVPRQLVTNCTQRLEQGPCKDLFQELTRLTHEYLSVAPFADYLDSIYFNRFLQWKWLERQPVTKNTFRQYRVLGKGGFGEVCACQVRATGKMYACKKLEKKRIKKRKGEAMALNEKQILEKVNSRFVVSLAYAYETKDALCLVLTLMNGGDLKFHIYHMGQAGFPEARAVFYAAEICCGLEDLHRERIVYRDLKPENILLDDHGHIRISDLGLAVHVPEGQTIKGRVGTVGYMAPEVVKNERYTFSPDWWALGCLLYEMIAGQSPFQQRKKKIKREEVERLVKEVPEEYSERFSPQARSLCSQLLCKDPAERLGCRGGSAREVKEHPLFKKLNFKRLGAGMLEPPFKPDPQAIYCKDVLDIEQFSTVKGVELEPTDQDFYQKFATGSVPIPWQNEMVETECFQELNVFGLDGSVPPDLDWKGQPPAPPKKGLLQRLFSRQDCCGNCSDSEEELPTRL
- protocol_description: GRK6 assay, IC50 determination (8-point concentration-response)
- Format: biochemical
- condition_notes: Series 3 (Table 13); conditions as Example 18
Just the number, please; pIC50 means minus log10 of the concentration in mol/L.

In the examples that follow, each entry is paired with its recorded pIC50.
chem_smiles | experimental_target | pIC50
O=c1[nH]c2ccc(-c3ccc(-c4nnc(SCc5nnn[nH]5)[nH]4)o3)cc2[nH]1 | GRK6, recombinant full-length GST-tagged human protein (Homo sapiens, UniProt P43250) | 5.82
CC(=O)c1cccc(-c2ccc(-c3nnc(SCc4nnn[nH]4)[nH]3)o2)c1 | GRK6, recombinant full-length GST-tagged human protein (Homo sapiens, UniProt P43250) | 5.61
N#Cc1ccc(-c2ccc(-c3nnc(SCc4nnn[nH]4)[nH]3)o2)cc1 | GRK6, recombinant full-length GST-tagged human protein (Homo sapiens, UniProt P43250) | 5.05
COc1cc(-c2ccc(-c3nnc(SCc4nnn[nH]4)[nH]3)o2)cc(C(F)(F)F)c1 | GRK6, recombinant full-length GST-tagged human protein (Homo sapiens, UniProt P43250) | 5.67
CS(=O)(=O)Nc1cccc(-c2ccc(-c3nnc(SCc4nnn[nH]4)[nH]3)o2)c1 | GRK6, recombinant full-length GST-tagged human protein (Homo sapiens, UniProt P43250) | 5.33

Query :: Can you look up pIC50 on GRK6, recombinant full-length GST-tagged human protein (Homo sapiens, UniProt P43250) for c1cc2cc(-c3ccc(-c4nnc(SCc5nnn[nH]5)[nH]4)o3)ccc2[nH]1 ?
Result :: 5.90

Query :: Now give it for Cc1cccc(-c2nnc(SCc3nnn[nH]3)[nH]2)c1 too.
Result :: 4.77

Query :: Another molecule to check: COc1ccc2cc(-c3ccc(-c4nnc(SCc5nnn[nH]5)[nH]4)o3)ccc2c1
Result :: 5.82

Query :: What about O=[N+]([O-])c1cc(-c2ccccc2)cc(-c2nnc(SCc3nnn[nH]3)[nH]2)c1 ?
Result :: 5.04

Query :: Same question for c1ccc(-c2ccc(-c3nnc(SCc4nnn[nH]4)[nH]3)o2)cc1 please.
Result :: 5.21

====

- experimental_target: GRK6, recombinant full-length GST-tagged human protein (Homo sapiens)
- Construct: Enzyme: 20 nM GRK6, recombinant full-length GST-tagged human protein; GST
- protocol_description: GRK6 assay, IC50 determination (8-point concentration-response)
- Type: biochemical
- condition_notes: Series 1 (Table 11); 20 nM GRK6, ATP 12 μM (Km), Peptide 216 1 μM, incubation 7 h
value_kind: pIC50
# log scale: pIC50 equals minus log10 of the concentration in mol/L

Below are worked cases with known answers.
chem_smiles | experimental_target | pIC50
O=C(O)CSc1nnc(-c2ccc(-c3cc4cc(F)ccc4[nH]3)o2)[nH]1 | GRK6, recombinant full-length GST-tagged human protein (Homo sapiens) | 6.22
O=C(O)CSc1nnc(-c2ccc(C#Cc3ccc4ccccc4c3)o2)[nH]1 | GRK6, recombinant full-length GST-tagged human protein (Homo sapiens) | 6.59
O=C(O)CSc1nnc(-c2ccc(-c3cccc(OCc4ccc5ccccc5c4)c3)o2)[nH]1 | GRK6, recombinant full-length GST-tagged human protein (Homo sapiens) | 6.34
Cn1ncc2ccc(-c3ccc(-c4nnc(SCC(=O)O)[nH]4)o3)cc21 | GRK6, recombinant full-length GST-tagged human protein (Homo sapiens) | 6.16
N#Cc1cccc(COc2cccc(-c3ccc(-c4nnc(SCC(=O)O)[nH]4)o3)c2)c1 | GRK6, recombinant full-length GST-tagged human protein (Homo sapiens) | 6.79

Query :: API: value(readout= pIC50, system= GRK6, recombinant full-length GST-tagged human protein (Homo sapiens), query= O=C(O)CSc1nnc(-c2ccc(-c3ccc(F)c(Cl)c3)o2)[nH]1 )
Result :: 6.50

Query :: Also O=C(O)CSc1nnc(-c2ccc(-c3cccc(OCc4ccc(C(F)(F)F)cc4)c3)o2)[nH]1 , if possible.
Result :: 6.20

Query :: Next compound: O=C(O)CSc1nnc(-c2ccc(-c3ccc(Cl)c(Cl)c3)o2)[nH]1
Result :: 6.76

Query :: Again, but for O=C(O)CSc1nnc(-c2ccc(C(c3ccccc3)c3ccccc3)o2)[nH]1
Result :: 5.17

Query :: And then O=C(O)CSc1nnc(-c2ccc(-c3ccc(Cl)nc3)o2)[nH]1 , what is it?
Result :: 5.68

Query :: Also need Cc1ccc(-c2ccc(-c3nnc(SCC(=O)O)[nH]3)o2)cc1[N+](=O)[O-] , thanks.
Result :: 6.15
